test description: chemical genetic growth profiling, strain panel (AID 1159580);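 also: tested at 20 µM; growth read once vehicle control cultures reached saturation at 30 °C; 1 = growth at the plate median or of vehicle wells; lower values mean less growth of the strain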
measurement context: S. cerevisiae deletion strains, growth OD, locus YLR262C, strain YPT6
The campaign covered roughly 5,500 compounds. About 2,000 (36%) were called active. Not shown: some 18% with an inconclusive outcome. Rule as the data show it: active = normalized growth mostly below about 0.91 (no sharp cut-off); inconclusive = no clear call, values can overlap the other calls; inactive = mostly above about 0.92. The list shows a part of the results.
Choose the fitting class; nothing outside active, inactive is accepted.

Status in this test for `O=C(c1ccccc1)c1cc2c(cc1Br)OCCO2` ?
active

Status in this test for CC[C@H](C)C(=O)O[C@H]1CCC=C2C=C[C@H](C)C(CCC3C[C@@H](O)CC(=O)O3)[C@H]21 (stereo not given in full) ?
inactive

Status in this test for O=[N+]([O-])c1ccc2c(c1)NC(c1ccc([N+](=O)[O-])s1)O2 (stereo not given) ?
active

Status in this test for `CCC(C)(C)C(=O)O[C@H]1C[C@@H](C)C=C2C=C[C@H](C)[C@H](CC[C@@H]3C[C@@H](O)CC(=O)O3)[C@H]21` ?
inactive

Status in this test for CN1c2ccccc2C(=O)NC1c1ccc([N+](=O)[O-])s1 (stereo not given) ?
inactive

====

Give measured normalized growth for each item. Keep answers brief.
test description: chemical genetic growth profiling, strain panel (AID 1159580);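 also: tested at 20 µM; growth read once vehicle control cultures reached saturation at 30 °C; 1 = growth at the plate median or of vehicle wells; lower values mean less growth of the strain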
measurement context: S. cerevisiae deletion strains, growth OD, locus YLR371W, strain rom2, hits give low values
The whole screen tested about 5,500 compounds, of which about 2,000 (36%) were called active. Roughly 18% stayed inconclusive and do not appear here. Some of the results follow.
Answer field: number only, no words.

# compound `Cc1cc(NC(=O)C2=C(O)c3ccccc3S(=O)(=O)N2C)no1` ; its normalized growth = 0.967

# compound CC(C)C(C)/C=C/C(C)C1CCC2C3=CC=C4CC(O)CCC4(C)C3CCC21C (stereo unspecified) ; its normalized growth = 1.05

# compound `CCNC(=O)CC[C@H](N)C(=O)O` ; its normalized growth = 0.989

# compound `CN1C(C(=O)Nc2ccccn2)=C(O)c2ccccc2S1(=O)=O` ; its normalized growth = 0.95

# compound COC(=O)C(O)c1ccccc1 (stereo unspecified) ; its normalized growth = 0.983

# compound CC1C[C@H]2CC(=O)[C@H]3CCCN4CCC[C@H]2[C@]34C1 (stereo partly specified) ; its normalized growth = 1.02

# compound COC(=O)C(C)c1ccc(C(=O)c2cccs2)cc1 (stereo unspecified) ; its normalized growth = 0.958

# compound `Nc1ccc(N=Nc2ccccc2)c(N)n1` ; its normalized growth = 1.03

# compound `O=C1NC(=O)C(=O)C(=O)N1` ; its normalized growth = 0.978

# compound CC(C)C(C)/C=C/C(C)[C@H]1CCC2C3=CCC4CC(=O)CC[C@]4(C)C3CC[C@@]21C (stereo partly specified) ; its normalized growth = 1.01

# compound CC1(C)OC(=O)C=CC2(C)C1CC(O)C1(C)C2CCC2(C)C(c3ccoc3)OC(=O)C3OC321 (stereo unspecified) ; its normalized growth = 0.997

====

test description: chemical genetic growth profiling, strain panel (AID 1159580);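 also: tested at 20 µM; growth read once vehicle control cultures reached saturation at 30 °C; 1 = growth at the plate median or of vehicle wells; lower values mean less growth of the strain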
measurement context: S. cerevisiae deletion strains, growth OD, locus YNL271C, strain bni1, hits give low values
Out of some 5,500 compounds screened, about 2,000 (36%) were called active. Not shown: some 18% with an inconclusive outcome. The list shows a part of the results.
metric name: normalized growth

# compound COc1ccc2c(c1O)OCC1c3cc4c(cc3OC21)OCO4 (stereo not given) ; its normalized growth = 0.98 (inactive)

# compound O=C(C1CCCCC1)N1CC(=O)N2CCc3ccccc3C2C1 (stereo not given) ; its normalized growth = 1 (inactive)

# compound CO[C@@]1(NC(=O)CSCC#N)C(=O)N2C(C(=O)O)=C(CSc3nnnn3C)CSC21 (stereo not given in full) ; its normalized growth = 1.04 (inactive)

# compound C[C@@H]1C(=O)OC2[C@H](O)C34[C@@H]5OC(=O)[C@@]3(O[C@@H]3OC(=O)[C@H](O)[C@@]34[C@H](C(C)(C)C)[C@H]5O)[C@]21O (stereo not given in full) ; its normalized growth = 1.01 (inactive)

# compound `COc1ccc2c(c1)O[C@H]1c3ccc(OC)cc3OC[C@@H]21` ; its normalized growth = 0.944 (inactive)

# compound `COc1ccc(CCN2CCC(Nc3nc4ccccc4n3Cc3ccc(F)cc3)CC2)cc1` ; its normalized growth = 0.982 (inactive)

# compound CCCNC1CCc2nc(N)sc2C1 (stereo not given) ; its normalized growth = 0.993 (inactive)

# compound NS(=O)(=O)c1cc2c(cc1Cl)NC(C(Cl)Cl)NS2(=O)=O (stereo not given) ; its normalized growth = 1.01 (inactive)

# compound `CC1(C)O[C@H]2[C@H](O)C[C@](O)(C(N)=O)C[C@H]2O1` ; its normalized growth = 1.04 (inactive)

# compound CC1=CC2C(CC1=O)C(C)=CCC2C(C)C (stereo not given) ; its normalized growth = 0.936 (inactive)

====

test description: chemical genetic growth profiling, strain panel (AID 1159580);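 also: tested at 20 µM; growth read once vehicle control cultures reached saturation at 30 °C; 1 = growth at the plate median or of vehicle wells; lower values mean less growth of the strain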
measurement context: S. cerevisiae deletion strains, growth OD, locus YJR075W, strain HOC1
In all, about 5,500 compounds went through this assay and about 2,000 (36%) were called active. Another 18% or so got no clear call; they are omitted. No stated cut-off is given here; in the data, active means normalized growth mostly below about 0.91 (no sharp cut-off); inconclusive means no clear call, values can overlap the other calls; inactive means mostly above about 0.92. Some of the results follow.
Choose the fitting class; nothing outside active, inactive is accepted.

Status in this test for `CCN(CC)CCNC(=O)c1c(-c2c(Cl)cccc2Cl)noc1C` ?
inactive

Status in this test for `COC(=O)c1sccc1-c1ccc(C(C)=O)o1` ?
inactive

Status in this test for C#CCCCCCCCCCCCC(=O)CC(O)COC(C)=O (centres undefined) ?
active

Status in this test for `CSC(=NC#N)N1CCN(c2ccc([N+](=O)[O-])cn2)CC1` ?
inactive

Status in this test for O=[N+]([O-])c1ccc2c(c1)NC(c1ccc([N+](=O)[O-])s1)O2 (centres undefined) ?
active

Status in this test for `O=c1[nH]oc2c1CCNC2` ?
inactive

Status in this test for C#CCCCCCCCCCCCC(O)CC(O)COC(C)=O (centres undefined) ?
inactive

Status in this test for CCNC(=O)[C@H]1O[C@@H](n2cnc3c(N)ncnc32)C(O)[C@H]1O (some centres undefined) ?
inactive

Status in this test for `COC(=O)c1sccc1NC(=O)C1CC1` ?
inactive

Status in this test for `Cc1ccc(Cl)c(Nc2ccccc2C(=O)O)c1Cl` ?
active

Status in this test for C=CC(N)CCC(=O)O (centres undefined) ?
inactive

Status in this test for `CC(C)[C@@H]1CC[C@@H](C)C[C@H]1O` ?
inactive

Status in this test for `COc1c2ccoc2c(OC)c2oc(=O)ccc12` ?
inactive

Status in this test for C=C1CCC(OC(C)=O)/C(C)=C/C[C@@H]2[C@@H]1CC2(C)C (some centres undefined) ?
inactive

Status in this test for `CCOC(=O)Nc1ccsc1C(=O)OC` ?
inactive

Status in this test for `N#Cc1c(N)oc(-c2ccco2)c1-c1ccco1` ?
inactive

Status in this test for `Nc1ccc(N=Nc2ccccc2)c(N)n1` ?
inactive

Status in this test for C=C1CCC(C2CC(=O)OC2=O)C(=O)CCC2C1CC2(C)C (centres undefined) ?
inactive

Status in this test for `Cc1cc(-c2ccccc2)nnc1NCCN1CCOCC1` ?
inactive

Status in this test for `O=[N+]([O-])c1ccc(N2CCCN(C(=S)Nc3ccc(Cl)cc3Cl)CC2)nc1` ?
inactive

Status in this test for `Cc1c(Cl)cccc1Nc1ccccc1C(=O)O` ?
active

Status in this test for C=C1CCC2C(CC2(C)C)C(=C)CC/C1=N\O (centres undefined) ?
inactive

Status in this test for `O=C(O)CN(CC(=O)O)Cc1cc2c(-c3ccccc3C(=O)O)c3cc(CN(CC(=O)O)CC(=O)O)c(=O)cc-3oc2cc1O` ?
inactive

Status in this test for C=C1C(=O)O[C@@H]2C3O[C@]3(C)CC/C=C(\C)CC[C@@H]12 (some centres undefined) ?
active

Status in this test for `COC(=O)C1=C(C)NC(C)=C(C(=O)OC)C1c1ccc(-c2ccsc2C(=O)OC)o1` ?
inactive

Status in this test for `CCCn1c(=O)c(C#N)cn(-c2ccc(Cl)cc2)c1=O` ?
inactive

Status in this test for C[N+]1(C)C2CC(OC(=O)[C@@H](CO)c3ccccc3)CC1C1OC12 (some centres undefined) ?
inactive

Status in this test for C#CCCCCCCCCCCCC(O)CC(O)CO (centres undefined) ?
inactive

Status in this test for COC(=O)C1C2CC3c4[nH]c5cc(OC)ccc5c4CCN3CC2CC(OC(=O)c2cc(OC)c(OC)c(OC)c2)C1OC (centres undefined) ?
inactive

Status in this test for OC(CN1CCC(Cc2ccc(F)cc2)CC1)c1ccc(Cl)cc1 (centres undefined) ?
inactive

Status in this test for `Cc1ccc(NC(=S)NCCO)c(C)c1` ?
inactive

Status in this test for `Cc1ccc(C)c(OCCCC(C)(C)C(=O)O)c1` ?
inactive

Status in this test for CCCCN1CCCCC1C(=O)Nc1c(C)cccc1C (centres undefined) ?
inactive

Status in this test for O=S1OCC2C(CO1)C1(Cl)C(Cl)=C(Cl)C2(Cl)C1(Cl)Cl (centres undefined) ?
inactive

Status in this test for CCCNC1CCc2nc(N)sc2C1 (centres undefined) ?
inactive

Status in this test for Nc1ccn(C2O[C@H](CO)[C@@H](O)[C@@H]2O)c(=O)n1 (some centres undefined) ?
inactive

Status in this test for O=C1[C@H](CCC(O)c2ccc(F)cc2)[C@@H](c2ccc(O)cc2)N1c1ccc(F)cc1 (some centres undefined) ?
inactive

Status in this test for `O=C1NC(=O)C(=O)C(=O)N1` ?
inactive

Status in this test for `c1ccc(-c2cc3c(ccc4nonc43)nn2)cc1` ?
inactive

Status in this test for O=C(C1CCCCC1)N1CC(=O)N2CCc3ccccc3C2C1 (centres undefined) ?
inactive

Status in this test for `COCCCNC(=S)Nc1ccc(C)cc1C` ?
inactive

Status in this test for `CC(C)(C)S(=O)(=O)/C(C#N)=C/N1CCCCC1` ?
inactive

Status in this test for `CC(C)n1cc(C#N)c(=O)n(Cc2ccccc2)c1=O` ?
inactive

Status in this test for `O=C(O)c1cc2cc(Cc3cccnc3)ccc2o1` ?
inactive

Status in this test for `CCNC(=O)CC[C@H](N)C(=O)O` ?
inactive

Status in this test for `O=C(c1ccccc1)c1cc2c(cc1Br)OCCO2` ?
inactive

Status in this test for C=C1C(=O)OC2CC1C(OC(C)=O)C/C(C)=C/CC/C(C)=C/CC[C@]2(C)O (some centres undefined) ?
inactive

Status in this test for `O=C(c1ccc(-c2ccccc2)cc1)c1cc2cc([N+](=O)[O-])ccc2o1` ?
inactive

Status in this test for `O=c1cc[nH]c(=S)[nH]1` ?
inactive
